Tested on: NCI-H23 lung
Experiment: NCI-60 one-dose screen, 48 h (100 = growth as untreated, 0 = no growth, -100 = all killed)
Details: 10 µM unless noted
The panel holds about 83,000 compounds, 20% with a hit somewhere; the sample as a whole holds those more often. The source made the active and inactive calls. How the source made its calls: active means growth percent below 10; inactive means the rest.
value-kind: growth

- compound: "COc1ccc(-c2nc3ccc(-c4nnc(SCC(=O)Nc5ccc(/C(C)=N\\O)cc5)o4)cc3[nH]2)cc1"
  observed-measurement: "42.6% (inactive)"

Enquiry: For S=C(Nc1ccc(OCc2nc3ccc(Cl)cc3[nH]2)cc1)NC1CCCCC1 , write its growth.
Return: -68.3% (active)

Enquiry: For NC(=O)c1ccc(-c2ccc3ncnc(N4CCc5cc(F)c(Cl)cc54)c3c2)cn1 , write its growth.
Return: 70.9% (inactive)

Enquiry: For O=C(CSc1nc2c(c(=O)[nH]1)CCCC2)Nc1ccccc1C(=O)O , write its growth.
Return: 99.9% (inactive)
